experimental endpoint: melting point

Look over these answered cases.
COc1ccc(N2CCN(C)CC2)c2c1CC[C@@H](NC(=O)c1ccc(C(=O)N3CCOCC3)cc1)C2 209 to 210 °C
CCCCOc1ccc(C(=O)N[C@@H]2CCc3c(O)ccc(N4CCN(C)CC4)c3C2)cc1 125 °C (dec.)
Cc1ccc(N2CCN(C)CC2)c2c1CC[C@@H](NC(=O)c1ccc(Cl)cc1)C2 210 to 212 °C

Which melting point reading was recorded for the molecule COCc1ccc(N2CCN(C)CC2)c2c1CC[C@@H](NC(=O)c1ccc(N3CCOCC3)cc1)C2 ?
200 °C (dec.)

Repeat for the following molecule: CCc1ccc(N2CCN(C)CC2)c2c1CC[C@@H](NC(=O)c1ccc(N3CCOCC3)cc1)C2
234 °C (dec.)

Repeat for the following molecule: O=C(N[C@@H]1CCc2c(Br)ccc(N3CCNCC3)c2C1)c1ccc(N2CCOCC2)cc1
228 to 229 °C

Repeat for the following molecule: CN1CCN(c2ccc(Br)c3c2C[C@H](NC(=O)c2ccc(N4CCOCC4)cc2)CC3)CC1
245 to 246 °C

Repeat for the following molecule: COc1ccc(C2CCN(C)CC2)c2c1CC[C@@H](NC(=O)c1ccc(N3CCOCC3)cc1)C2
237 to 242 °C (dec.)

Repeat for the following molecule: Cc1ccc(N2CCNCC2)c2c1CC[C@@H](NC(=O)c1ccc(N3CCOCC3)cc1)C2
207 to 210 °C

Repeat for the following molecule: COc1ccc(N2CCN(C)CC2)c2c1CC[C@@H](NC(=O)c1ccc(N3CCOCC3)cc1)C2
237 to 238 °C

Repeat for the following molecule: CN1CCN(c2ccc(Br)c3c2C[C@H](NC(=O)c2ccc(C(=O)N4CCOCC4)cc2)CC3)CC1
228 to 230 °C

Repeat for the following molecule: CN1CCN(c2ccc(O)c3c2C[C@H](NC(=O)c2ccc(C#N)cc2)CC3)CC1
144 °C

Repeat for the following molecule: CN1CCN(c2ccc(Br)c3c2C[C@H](NC(=O)c2ccc(C(F)(F)F)cc2)CC3)CC1
229 to 230 °C

Repeat for the following molecule: CN1CCN(c2ccc(OC(F)F)c3c2C[C@H](NC(=O)c2ccc(N4CCOCC4)cc2)CC3)CC1
222 to 223 °C

Repeat for the following molecule: CN1CCN(c2ccc(O)c3c2C[C@H](NC(=O)c2ccc(N4CCOCC4)cc2)CC3)CC1
84 to 88 °C
